Reference source for all entries: patent US6043285A

- Tested on: interleukin-6 (IL-6) production in T98G cell line
- experiment-description: IL-6 production in the T98G cell line stimulated with β-amyloid
- Type: cell-based, human
- measurement-conditions: Homo sapiens, T98G; β-amyloid stimulated; read-out: Cl50 for production of IL-6
endpoint-label: IC50

Value of measured IC50 for the entry `CC(=O)Nc1ccc(O)cc1` : > 1000 µM
